Value source: patent US20170334899A1

assayed.system: CDK2/CycE (Homo sapiens, UniProt P24941)
Construct: GST
protocol.text: CDK2/CycE kinase assay (TR-FRET)
condition.label: avg, read-out: CDK2 avg (IC50 [mol/l])
Kindly state IC50 for each of the entries shown.

Asked: Report its IC50 with CDK2/CycE (Homo sapiens, UniProt P24941) as the test system: Cc1nsc(Nc2cnc(C(F)(F)F)cn2)c1C(=O)Nc1ccc(F)c(OC2CCN(CC(F)(F)F)C2)c1 (stereo not drawn) [Example 315]
Given back: ≥ 20 µM

Asked: Look up and report IC50, with CDK2/CycE (Homo sapiens, UniProt P24941) as system, for Cc1nsc(Nc2cnc(C(F)(F)F)cn2)c1C(=O)Nc1ccc(OC2CCN(C(CF)CF)CC2)nc1 [Example 324]
Given back: ≥ 20 µM

Asked: Param request: IC50 | system CDK2/CycE (Homo sapiens, UniProt P24941) | item Cc1nsc(Nc2cc(C#N)ccn2)c1C(=O)Nc1cccc(NC(=O)C(C)(C)C)c1 [Example 183]
Given back: > 20 µM

Asked: Determine reported IC50 for Cc1nsc(Nc2cncc(C(F)(F)F)n2)c1C(=O)Nc1ccc(F)c(C(N)=O)c1 [Example 204] ; test system: CDK2/CycE (Homo sapiens, UniProt P24941).
Given back: > 20 µM

Asked: Please report IC50 with CDK2/CycE (Homo sapiens, UniProt P24941) for item Cc1nsc(Nc2cnc(C(F)(F)F)cn2)c1C(=O)Nc1ccc(C2CCN(CC(F)(F)F)CC2)nc1 [Example 358] .
Given back: > 20 µM

Asked: Report the value of IC50 obtained on CDK2/CycE (Homo sapiens, UniProt P24941) for Cc1nsc(Nc2cnc(C(F)(F)F)cn2)c1C(=O)Nc1ccc(O[C@H]2CCCN(CC(F)F)C2)nc1 [Example 388] .
Given back: > 20 µM

Asked: # assay system CDK2/CycE (Homo sapiens, UniProt P24941): give IC50 of Cc1nsc(Nc2cc(C#N)ccn2)c1C(=O)Nc1ccc(Oc2cccc(C(F)(F)F)c2)nc1 [Example 230]
Given back: > 20 µM

Asked: Enter recorded IC50 with CDK2/CycE (Homo sapiens, UniProt P24941) for Cc1nsc(Nc2cnc(C(F)(F)F)cn2)c1C(=O)Nc1ccc(F)c(OCC2CCN(CC(F)F)CC2)c1 [Example 308] here.
Given back: ≥ 20 µM

Asked: Fill: IC50 (CDK2/CycE (Homo sapiens, UniProt P24941)) for this compound Cc1nsc(Nc2cnc(C(F)(F)F)cn2)c1C(=O)Nc1ccc(OCCN(C)CC(F)(F)F)nc1 [Example 350]
Given back: ≥ 20 µM

Asked: Lab note: record IC50 of Cc1nsc(Nc2cnc(C(F)(F)F)cn2)c1C(=O)Nc1ccc(N2CCN(CC(F)F)CC2)nc1 [Example 359] tested on CDK2/CycE (Homo sapiens, UniProt P24941).
Given back: > 20 µM

Asked: Check CDK2/CycE (Homo sapiens, UniProt P24941) data and give IC50 for Cc1nsc(Nc2cncc(C(F)(F)F)n2)c1C(=O)Nc1ccc(OC2CCCN(C(=O)OC(C)(C)C)C2)nc1 (stereo not drawn) [Example 189] .
Given back: > 20 µM

Asked: Find the measured IC50 of Cc1nsc(Nc2cnc(C(F)(F)F)cn2)c1C(=O)Nc1ccc(C(=O)OC(C)(C)C)cc1 [Example 96] with CDK2/CycE (Homo sapiens, UniProt P24941) as test system.
Given back: ≥ 20 µM

Asked: Recall the reported IC50 of Cc1nsc(Nc2cc(C#N)ccn2)c1C(=O)Nc1cccc(C(=O)N2CCCC2)c1 [Example 114] when tested on CDK2/CycE (Homo sapiens, UniProt P24941).
Given back: ≥ 20 µM

Asked: # assay system CDK2/CycE (Homo sapiens, UniProt P24941): give IC50 of Cc1nsc(Nc2cnc(C(F)(F)F)cn2)c1C(=O)Nc1ccc(F)c(OCCCNCCC(F)(F)F)c1 [Example 307]
Given back: ≥ 20 µM

Asked: Given Cc1nsc(Nc2cnc(C(F)(F)F)cn2)c1C(=O)Nc1ccc(O[C@H]2CCCN(CCC(F)(F)F)C2)nc1 [Example 390] , report its IC50 on CDK2/CycE (Homo sapiens, UniProt P24941).
Given back: > 20 µM

###

assayed.system: CDK2/CycE (Homo sapiens, UniProt P24941)
Construct: GST
protocol.text: CDK2/CycE kinase assay (TR-FRET)
condition.label: avg, read-out: CDK2 avg (IC50 [mol/l])
Method: CDK2/CycE -inhibitory activity of compounds of the present invention was quantified employing the CDK2/CycE TR-FRET assay as described in the following paragraphs. […] The resulting mixture was incubated 1 h at 22° C. to allow the formation of complex between the phosphorylated biotinylated peptide and the detection reagents. Subsequently the amount of phosphorylated substrate was evaluated by measurement of the resonance energy transfer from the Eu-chelate to the streptavidine-XL. […]
pIC50: −log10 of the molar value.
value.type: pIC50

Asked: Please look at this compound and report its pIC50: CC(=O)N1CCC(Oc2ccc(NC(=O)c3c(C)nsc3Nc3cnc4ccccc4n3)cn2)CC1 [Example 22]
Given back: ≤ 4.70

Asked: Consider the compound Cc1nsc(Nc2cnc(C(F)(F)F)cn2)c1C(=O)Nc1ccc(OCC2CCCN(CC(F)(F)F)C2)nc1 (stereo not drawn) [Example 326] and give its recorded pIC50.
Given back: ≤ 4.70

Asked: // fetch pIC50 given entry Cc1nsc(Nc2cnc(C(F)(F)F)cn2)c1C(=O)Nc1ccc(OCC2CCCN(C(=O)OC(C)(C)C)C2)nc1 (stereo not drawn) [Example 228]
Given back: < 4.70

Asked: # return recorded pIC50 for entry Cc1nsc(Nc2cncc(C(F)(F)F)n2)c1C(=O)Nc1ccc(OCCNC(=O)OC(C)(C)C)nc1 [Example 191]
Given back: 4.74

Asked: Hello, please tell me recorded pIC50 for this one: Cc1nsc(Nc2cnc(C(F)(F)F)cn2)c1C(=O)Nc1ccc(O[C@@H]2CCCN(CCC(F)(F)F)C2)nc1 [Example 387]
Given back: < 4.70

Asked: State its pIC50 for this compound: Cc1nsc(Nc2cnc(C(F)(F)F)cn2)c1C(=O)Nc1ccc(F)c(OCCCNC(=O)C(F)(F)F)c1 [Example 427]
Given back: ≤ 4.70

Asked: Tell me measured pIC50 for Cc1nsc(Nc2cc(C#N)ccn2)c1C(=O)Nc1ccc(NC(=O)OC(C)(C)C)cc1 [Example 177] please.
Given back: < 4.70

Asked: Specify measured pIC50 for Cc1nsc(Nc2cnc(C(F)(F)F)cn2)c1C(=O)Nc1ccc(F)c(OCC2CCCN(CCF)C2)c1 (stereo not drawn) [Example 336] .
Given back: ≤ 4.70

Asked: Provide pIC50 value for the following compound: Cc1nsc(Nc2cnc3ccccc3n2)c1C(=O)Nc1ccc(NC2CCCN(C(=O)OC(C)(C)C)C2)nc1 (stereo not drawn) [Example 241]
Given back: < 4.70

Asked: Given the compound Cc1nsc(Nc2cnc3ccccc3n2)c1C(=O)Nc1ccc(NCCNC(=O)OC(C)(C)C)nc1 [Example 244] , write its reported pIC50.
Given back: < 4.70

Asked: Hello, please tell me recorded pIC50 for this one: Cc1nsc(Nc2ccc(C#N)cn2)c1C(=O)Nc1cccc(S(C)(=O)=O)c1 [Example 150]
Given back: < 4.70

Asked: Identify measured pIC50 associated with Cc1nsc(Nc2cnc(C(F)(F)F)cn2)c1C(=O)Nc1ccc(F)c(OCCCN(C)CC(F)(F)F)c1 [Example 302]
Given back: < 4.70

Asked: Return value of pIC50 for input Cc1nsc(Nc2ccc(C#N)cn2)c1C(=O)Nc1ccc(S(C)(=O)=O)cc1 [Example 246] , no commentary.
Given back: < 4.70

Asked: Name the recorded pIC50 of the item Cc1nsc(Nc2cnc3ccccc3n2)c1C(=O)Nc1ccccc1S(C)(=O)=O [Example 188] in your answer.
Given back: < 4.70

Asked: Complete the entry with pIC50 for Cc1nsc(Nc2cnc(C(F)(F)F)cn2)c1C(=O)Nc1ccc(F)c(OC2CCN(CC(F)F)C2)c1 (stereo not drawn) [Example 314]
Given back: ≤ 4.70

###

System: human cervical tumor cell line HeLa (ATCC CCL-2)
protocol.text: SAC-Formation - Nocodazole-Induced Assay
Type: cell-based
condition.label: Homo sapiens, HeLa, 24 h, HeLa cells, nocodazole 0.1 μg/ml together with test compound, decrease of mitotic cells (phospho-histone H3 Ser10)
value.type: pIC50
Worth noting: pIC50 values are minus log10 of concentrations stated in mol/L.

Asked: Please indicate recorded pIC50 of Cc1nsc(Nc2cc(C#N)ccn2)c1C(=O)Nc1ccc(Oc2cccnc2)nc1 [Example 119] measured with human cervical tumor cell line HeLa (ATCC CCL-2).
Given back: 5.35

Asked: Give the observed pIC50 of Cc1nsc(Nc2cnc(C(F)(F)F)cn2)c1C(=O)Nc1ccc(C(=O)N2CCN(CC(F)F)CC2)cc1 [Example 154] for human cervical tumor cell line HeLa (ATCC CCL-2).
Given back: 6.15

Asked: With human cervical tumor cell line HeLa (ATCC CCL-2) as the test system, provide measured pIC50 for this compound: Cc1nsc(Nc2cnc3ccccc3n2)c1C(=O)Nc1cccc(C(=O)N2CCN(c3ccccc3C#N)CC2)c1 [Example 80]
Given back: 5.74

Asked: With human cervical tumor cell line HeLa (ATCC CCL-2) as the test system, provide measured pIC50 for this compound: COC(=O)CCCc1ccc(NC(=O)c2c(C)nsc2Nc2cc(C#N)ccn2)cc1 [Example 256]
Given back: 5.80

Asked: Identify measured pIC50 obtained with human cervical tumor cell line HeLa (ATCC CCL-2) for Cc1nsc(Nc2cnc3ccccc3n2)c1C(=O)Nc1cccc(-c2nc(C(C)(C)C)no2)c1 [Example 108] .
Given back: 7.72

Asked: Give reported pIC50 for Cc1nsc(Nc2cc(C#N)ccn2)c1C(=O)Nc1ccc(OC2CCN(CC(F)F)CC2)nc1 [Example 263] (human cervical tumor cell line HeLa (ATCC CCL-2))
Given back: 6.04

Asked: Provide the reported pIC50 (system: human cervical tumor cell line HeLa (ATCC CCL-2)) for Cc1nsc(Nc2cnc(C(F)(F)F)cn2)c1C(=O)Nc1ccc(OC2CCN(CC(F)F)CC2)c(F)c1 [Example 164]
Given back: 7.08

Asked: Enter measured pIC50, system human cervical tumor cell line HeLa (ATCC CCL-2), for the compound shown: Cc1nsc(Nc2cnc(C(F)(F)F)cn2)c1C(=O)Nc1ccc(F)c(OC[C@@H]2CCCN(CCC(F)(F)F)C2)c1 [Example 395]
Given back: 7.46

Asked: // output pIC50; input Cc1nsc(Nc2ccc(C#N)cn2)c1C(=O)Nc1ccc(OCCCNC(=O)OC(C)(C)C)nc1 [Example 46] ; system human cervical tumor cell line HeLa (ATCC CCL-2)
Given back: 7.39

Asked: Enter pIC50 (test system human cervical tumor cell line HeLa (ATCC CCL-2)) for Cc1nsc(Nc2cncc(C(F)(F)F)n2)c1C(=O)Nc1ccc(C(=O)NC2CN(CC(F)(F)F)C2)cc1 [Example 280]
Given back: 6.17

Asked: Please report pIC50 with human cervical tumor cell line HeLa (ATCC CCL-2) for item COc1cc(NC(=O)c2cccc(NC(=O)c3c(C)nsc3Nc3cnc4ccccc4n3)c2)cc(OC)c1OC [Example 77] .
Given back: 5.66

Asked: Consider the compound Cc1nsc(Nc2cnc(C(F)(F)F)cn2)c1C(=O)Nc1ccc(O[C@@H]2CN(CCC(F)(F)F)C[C@@H]2F)nc1 [Example 409] tested on human cervical tumor cell line HeLa (ATCC CCL-2); state its pIC50.
Given back: 7.68

Asked: Report value only: pIC50, human cervical tumor cell line HeLa (ATCC CCL-2), Cc1nsc(Nc2ccc(C#N)cn2)c1C(=O)Nc1ccc(OC2CCCN(C(=O)OC(C)(C)C)C2)nc1 (stereo not drawn) [Example 36]
Given back: 6.68

Asked: System human cervical tumor cell line HeLa (ATCC CCL-2). Read-out pIC50. Item Cc1nsc(Nc2cnc(C(F)(F)F)cn2)c1C(=O)Nc1ccc(OC2CCN(CCF)CC2)c(F)c1 [Example 162] . Report value.
Given back: 6.80

Asked: With human cervical tumor cell line HeLa (ATCC CCL-2) as the test system, provide measured pIC50 for this compound: Cc1nsc(Nc2cnc(C(F)(F)F)cn2)c1C(=O)Nc1ccc(O[C@@H]2CCN(CCC(F)(F)F)C2)nc1 [Example 381]
Given back: 7.33
